experiment-summary: Cytotoxicity against human 293T cells after 24 hrs by MTT assay
Assay type: cell-based
condition-label: HEK-293T cells
parameter: CC50 at 24 h (µM)
Lab book: enter the figure in µM, no units written.

NS(=O)(=O)c1ccc(N2N=C3c4ccccc4OCC3C2c2ccc(Cl)cc2Cl)cc1 (centres undefined)	57.1
Cc1ccc(-c2cc(C(F)(F)F)nn2-c2ccc(S(N)(=O)=O)cc2)cc1	72.4
NS(=O)(=O)c1ccc(N2N=C3c4ccccc4CCC3C2c2c(F)cccc2Cl)cc1 (centres undefined)	68.3

Query: Dear colleague, I am looking for the recorded CC50 at 24 h of the following compound: Cc1cccc(C2C3CCc4ccccc4C3=NN2c2ccc(S(N)(=O)=O)cc2)c1 (centres undefined)
Response: 67.2

Query: Also, NS(=O)(=O)c1ccc(N2N=C3c4ccccc4CCC3C2c2ccccc2Br)cc1 (centres undefined) please.
Response: 61.1

Query: What would you report for NS(=O)(=O)c1ccc(N2N=C3c4ccccc4OCC3C2c2ccccc2Br)cc1 (centres undefined) ?
Response: 81.6

Query: Next record, please: COc1cc2ncnc(Nc3ccc(F)c(Cl)c3)c2cc1OCCCN1CCOCC1
Response: 52

Query: Queued: NS(=O)(=O)c1ccc(N2N=C3c4ccccc4OCC3C2c2ccc(Br)cc2)cc1 (centres undefined)
Response: 63.2

Query: Please answer likewise for NS(=O)(=O)c1ccc(N2N=C3c4ccccc4CCC3C2c2cccc(Br)c2)cc1 (centres undefined)
Response: 52.6

Query: Try this compound too: NS(=O)(=O)c1ccc(N2N=C3c4ccccc4CCC3C2c2cccc(F)c2)cc1 (centres undefined)
Response: 57.9

Query: Same question, NS(=O)(=O)c1ccc(N2N=C3c4ccccc4CCC3C2c2ccc(F)cc2)cc1 (centres undefined) this time
Response: 59.8

Query: # iterate: Cc1ccc(C2C3CCc4ccccc4C3=NN2c2ccc(S(N)(=O)=O)cc2)cc1 (centres undefined)
Response: 63.6

Query: // same read-out, input: Cc1ccccc1C1C2COc3ccccc3C2=NN1c1ccc(S(N)(=O)=O)cc1 (centres undefined)
Response: 64.8

Query: What do we get for NS(=O)(=O)c1ccc(N2N=C3c4ccccc4OCC3C2c2c(F)cccc2Cl)cc1 (centres undefined) ?
Response: 66.2

Query: Query COc1cccc(C2C3CCc4ccccc4C3=NN2c2ccc(S(N)(=O)=O)cc2)c1 (centres undefined) next
Response: 68.2

Query: Subsequent entry: NS(=O)(=O)c1ccc(N2N=C3c4ccccc4CCC3C2c2ccccc2F)cc1 (centres undefined)
Response: 57.9

Query: Would you kindly repeat that for Cc1ccccc1C1C2CCc3ccccc3C2=NN1c1ccc(S(N)(=O)=O)cc1 (centres undefined) ?
Response: 70.8

Query: One more compound: NS(=O)(=O)c1ccc(N2N=C3c4ccccc4CCC3C2c2cccc(O)c2)cc1 (centres undefined)
Response: 69.2

Query: Also, COc1ccccc1C1C2COc3ccccc3C2=NN1c1ccc(S(N)(=O)=O)cc1 (centres undefined) please.
Response: 83.2
